Listed here are molecules together with their documented IC50.
Target: MMP-2 (Homo sapiens)
Construct: made in house; provided by Dr. Gregory Goldberg, Washington University
Sequence (P08253 110-660): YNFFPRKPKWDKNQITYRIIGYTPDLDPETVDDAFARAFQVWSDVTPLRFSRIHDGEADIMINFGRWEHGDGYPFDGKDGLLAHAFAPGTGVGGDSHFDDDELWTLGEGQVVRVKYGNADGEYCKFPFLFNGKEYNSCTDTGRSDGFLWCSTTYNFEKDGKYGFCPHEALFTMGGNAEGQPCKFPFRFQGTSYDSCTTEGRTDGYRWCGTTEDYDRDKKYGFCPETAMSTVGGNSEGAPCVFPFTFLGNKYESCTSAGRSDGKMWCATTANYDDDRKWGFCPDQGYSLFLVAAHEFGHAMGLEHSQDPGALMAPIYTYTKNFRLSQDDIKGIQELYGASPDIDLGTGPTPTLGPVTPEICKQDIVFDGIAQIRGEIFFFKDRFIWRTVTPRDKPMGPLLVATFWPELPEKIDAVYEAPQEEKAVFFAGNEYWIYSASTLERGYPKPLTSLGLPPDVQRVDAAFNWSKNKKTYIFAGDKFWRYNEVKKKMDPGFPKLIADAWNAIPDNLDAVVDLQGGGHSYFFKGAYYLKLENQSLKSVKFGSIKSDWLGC
Test: biochemical
Settings: recombinant human MMP-2, MCA peptide substrate 4 μM, pH 7.5, room temperature; read-out: MMP-2 IC50
Reply numerically in nM, unit not repeated.

[
  {
    "MOLECULE": "O=C(Nc1cccc(Cl)c1)C1CCN(c2ccc(S(=O)(=O)C3(C(=O)NO)CCOCC3)cc2)CC1",
    "ATTRIBUTE_MEASURED": "IC50",
    "RESULT": 700
  },
  {
    "MOLECULE": "O=C(NO)C1(S(=O)(=O)c2ccc(N3CCC(OCc4ccc(COc5ccccc5)cc4)CC3)cc2)CCOCC1",
    "ATTRIBUTE_MEASURED": "IC50",
    "RESULT": 30.7
  }
]

# return recorded IC50 for input O=C(NO)C1(S(=O)(=O)c2ccc(N3CCC([S+]([O-])c4ccccc4)CC3)cc2)CCN(C2CC2)CC1 (stereo not shown)
3100

Data credit: patent US6750228B1
